Consider the following compounds and their measured Her2 level readings.
study target: Receptor tyrosine-protein kinase erbB-2 (Homo sapiens)
method: reducers of endogenous Her2 protein level, primary screen, SKBR3 breast tumor cells, AlphaScreen, ATP viability (AID 461);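 further: lower value means less Her2 protein in the cells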
protocol conditions: 18-24 h, at 10 µM, active compounds read low
Response body: numeric value in %, unit text excluded.

Please review the entries below; each comes with its answer.
compound=CCOC(=O)c1c(C)oc2ccc(OCC(=O)N(CC)CC)cc12 numeric_readout=85
compound=CC(=O)c1cccc(-n2nnnc2SCC(=O)N2CCCC2)c1 numeric_readout=88
compound=O=C(OCC(=O)N1CCCC1)c1ccccc1OCc1ccccc1 numeric_readout=79.5
compound="CCOC(=O)C1=C(C)NC(C)=C(C(=O)OCC)C1C(=O)OC1CCOC1=O (stereo unspecified)" numeric_readout=85
compound=COc1ccc2[nH]c(=O)c(CN(C(=O)c3ccncc3)C(C)C)cc2c1 numeric_readout=108

Turning now to a further compound:
## Task GET /values?readout=Her2 level&item= CCOc1ccc2[nH]c(=O)c(C(c3nnnn3Cc3ccco3)N3CCC(C)CC3)cc2c1 (stereo unspecified)
## Result 81.5
